B1: tRNA (parent)
chain: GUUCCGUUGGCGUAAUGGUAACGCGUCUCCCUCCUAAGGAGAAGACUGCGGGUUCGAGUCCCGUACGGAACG

Variants of: B1
Experiment summary: yeast fitness, log relative to wild type (ln ratio); higher = fitter; tRNA-Arg(CCU), competitive growth, 37 C, 1 M NaCl
Each record's class is read off its yeast fitness (ln) using these ranges: b0 (below -0.3), b1 (-0.3 to below -0.2), b2 (-0.2 or more)

U2C C27U A43C C46U C66A A69G A70U = b1
G1A U2G G6U C27U C46U = b1
U2C G6A A43C C46U C66U A69G A70G C71U = b2
U2G G6A A43C C66U = b2
G6A C27U A43C C46U C66A A69G A70G = b1
G6A C27U A43C A69G C71U = b0
U2G C66A A70G = b2
U2C A43C C46U C66A A69G A70G = b2
U2C G6A C27U A43C A69G A70G C71U = b1
U2C G6U C27U A43C C46U C66A A70U C71U = b2
G6A C66U A69G A70U C71U = b0
G1A U2G G6U C46U A70G C71U = b1
U2G A43C C46U C66A A70G C71U = b2
G1A U2C C27U A43C C46U A69G A70G = b2
U2G C46U C66U A70U C71U = b1
G1A G6A C66U A69G C71U = b2
G1A U2C A43C C66U A70G = b2
U2C A43C C46U C66U A69G A70U C71U = b0
G1A U2C G6U C27U C46U C66U A70U = b2
U2C G6U C27U A43C A69G A70U = b1
U2C G6A C27U = b2
G1A C27U C66U A69G A70U C71U = b0
G1A G6U C27U C46U C66U A69G A70G = b1
U2G G6U C27U A70U C71U = b1
C27U C66A A70G C71U = b2
G1A G6U C27U C66A A70U C71U = b0
G1A U2C G6A C27U A43C C66U A70G C71U = b2
U2C G6A C27U A43C A69G A70U C71U = b0
C46U C66U = b2
U2G C46U C66A A69G C71U = b2
G1A U2C C27U C66U = b2
C66A = b2
G6U C27U A43C C66A A69G = b1
U2C C27U A43C A69G A70G C71U = b2
A43C A69G A70G C71U = b2
G1A C27U A43C C46U C66U A69G A70U = b0
U2C G6U A43C C46U A69G C71U = b2
U2C C66A A70U C71U = b2
U2G C46U A69G A70U C71U = b2
G1A U2G A43C A69G A70G = b2
G1A U2G A43C C46U C66U A70G = b1

Origin of values: the RNAGym collection of RNA variant scans (doi:10.1038/s41586-018-0170-7)
